# method_description: protease stability score; higher = more stable; yeast display proteolysis, trypsin and chymotrypsin;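 further: relative to predicted unfolded state with 0 unfolded-like and 1 meaning tenfold more protease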
For each record, write down the corresponding protease stability score.

Qu. Recorded protease stability score for DERDEETRRAIEWWVEVLKTGNFKDIKELADPNARVHQGDKHFHGMDHFLDFLERLGIDHVQINHIHYFDGKIEIDHHVRIGDKETRVIFISDKIDGRWRITEVQFH , please?
Ans. 1.13

Qu. Return reported protease stability score; argument: SEDHEIARLAVEIETHSQLTGDEESMNHLLDPTTRININGRELHGREEAIEWMKRFMEQFDHVKVEVEDISIQGEKLIIRGRFSVIYDGRKVQDHTEVIIVKFNGRWHVKSVHIR
Ans. 2.58

Qu. Reported protease stability score, sequence SEEQELLKKLAHENHESQRTGDEDFFHKLADPDARIRVGDKEIHGMEKVLEFWKTFRRQFKGLVVHLEDSHVINGQTFLHRNVNFNGVEEELEIILVVVDGRIKSIEIHLRRR : ____
Ans. 0.653

Qu. Field request: protease stability score | item: SEEEHITKLALDMWFTSLLTGDEHTFRHLLDPNVRVHIDGREYHGREHWRDLLTYLLTHLGVDHMEFRTRDQDVVGDKITLVTEIIIHVGDKNLSFESELIVAKVDGRWRIRSEDYR
Ans. 0.645

Qu. If you can, please state the reported protease stability score value of DEDEHTIRELFKEFIIAQVTGDFERLHELLDPHARLEIDGVILHGREQWTKFMQHLLEYLGIKHVSFHLHHLDVQGEKVKLDSRVRLFFNGVHYEKRNIIIWRKFNGRWYLEESTIE .
Ans. 1.48

Qu. Need protease stability score, item DEEERLLDHVIKLMLQMHLTGNEEIFLNLADPHAKFYFNGVDLHGMELVSKWESEWLHHIRIRRRHIEDSRIVGDKAHIHVRVDEEIGDKKLDTHYRVDLVVINGRWHSVRIDMR
Ans. 1.25

Qu. Could you share which protease stability score value was measured for SDLEEEINRFLTELLRDWETGNWKAFADLLDPHTRVLIDGKEHHGREIFLEHNHQLGIKHREFELKKFRIFENRVEFDGTLHLVYGDKRVHREIHIIILKIDGRWKITEIRFL ?
Ans. 1.54

Qu. Request the reported protease stability score associated with DEHHETLKRMTDQTLHVIHTGDEETWNQLADPNTLIRIIFENREINIHGWHLVVRWLQHLHRELRIEIDIRDIEIQGNKVHVEGELHVHQGEKEINIRIIFHFIVVNGRLRDVTIDFR
Ans. 1.3

Qu. Given DELEHWAHIILEEFTRLYTTGDEETFNHLADPDTRLFFNGREFIGREKFIDAWRHLRYKEIRLRDHQVDVQGDKMRMILHMRVNSNINGREVEQDVHLEILTKKIDGRWRLKEVHFQTH , state its recorded protease stability score.
Ans. 2.39

Qu. Look up protease stability score: DEDKESAERAFRILVHLWETGDEHKLERMHDPNTRYHQGDKDIHGMEKILERLSHIRIKDVKLRDIKYQGEKLEVDGEIEIEVDGRNLLLRTILFFDKVDGRWVIRSIEVR
Ans. 1.52

Qu. For the sequence shown here, DEDSYNSHRALEDLWRDLETGDEENLNKLADPHARVKQGDKEFHGMHHWIHFLESLGITKVHVRIHRIQTQGDKVRIVGEIEFNGRRHHSIIFIEKINGVWLVHKMEIK , give the reported protease stability score.
Ans. 1.41

Qu. Please look up its protease stability score: SEDEEIHRKMFEDILHALRTGDWRELKHNLDPNVRLEVDGREIHGWEEVVKFLHEARVEHIEMRIRHVEFQGEKIISHRHMIFHKDVNGVRVDQRHDFTTIILKVNGRWRYHSIKID
Ans. 1.36

Qu. Entry DEDEENAKMFTELLWRVLLTGDEELFKEMADPHVRVIFDGREIHGRDDIAHWITEMRFEINILRINDVRLVGDYIKIDGTMERQGEINGKRIRSSHRIIIFVRKINGKWHLEQLHFS : reported protease stability score = ?
Ans. 2.26

Qu. Which protease stability score is listed for SEDEQHLRRMLKVWDTAVKTGDEHLLDRLADPDVRIDINGVELHGREELERMLKQMRIEFEDSDLNHVHIQGDKIHADTEVVVIIIINGREERRRLRIESIVWKVNGRWHFKEFRFK ?
Ans. 1.4

Qu. Quick one: protease stability score for SEREEHDEFIMKLSLELEKTGDEHTIERLADPNPRIILEQGDKRITRHGWEHWEELLRRLGIKHIEFHRHKAINGQVHVDGTLRFDGVTVRSELVLIMVDGVMKTIKVIIR ?
Ans. 1.44

Qu. Any idea what its protease stability score is? The sequence is DEDEKEAHELSRTIIESWLTGDEDSLSEMMDPHTRSDVNGRISHGREEASRVWHEEMRKLGVKHYEIKRVHSRVIDGRLDLHIYSRMHINGVSRSVELIFHIEKVNGRWLIKEVRVHLL
Ans. 1.25

Qu. Find the recorded protease stability score belonging to DEHDEYLHHLLKVLWELIMTGDEHTFERLADPNVRLEVGNYFHVGRENIREMWKFLHDLLGVDHFRLHIRDLRVFNGVADAEYELRLNQGDKETRIEVRIYVHIVNGVLKSIRIETH and report it.
Ans. 1.44

Qu. So what's the measured protease stability score for this one? HEEHKHVKELAEMLIEWFLTGDEETTLDMADPDVRIDINGVDKIGRETVVEFKKRQHRDLGWDNIRFRPTHINAFDGRINIEGVIIVNGVTFKTEFRFEVINGRLKLDKWIVR
Ans. 0.661

Qu. Please report the recorded protease stability score for DEEDKHADWIMKQMVDLWTTGDEETSITLLDPNVKLHVDGRDIHGREKAMEWLRRFIVHLRIEIIIRHFDFQGNFARFHGELEIRIGDKSQVLETRLEIIVVNGKFRILEIELR .
Ans. 2.71

Qu. Form field: reported protease stability score of DEEHRDSEEMTRKFLHNFITGNEHILEDLLDPHVRTDVDGREFIGWELAFKAFREFLERLGFDHIRHRDMKLHVVGNKVTSVITNNIQVGDKEHELRIILINRKIDGKWSVTEVRIHVK
Ans. 1.25

Qu. Given the sequence DEERRSSEEYVRTLHDIIRTGDEDRLVRLADPHARLEVGEFHFHGREELEHFWRKIIEHFGHDKIEVRIESVEVQGEKIVNVGKLSVNGQEREIIFIALKYNGRWITRSIHLH , what is its reported protease stability score?
Ans. 1.59

Qu. Look up protease stability score: DEEKKDVHKIWELFVEHYYTGDEEFLHRMADPNVRSDVNGKELHGRESLLSLMREWIDRADVIQHIDVEDRRIQGDKAYIRTRFVGLVNGKPVSTDVTIILSKVNGQWFMHRIVIK
Ans. 1.61
